# TARGET OF ASSAY: Dual specificity protein kinase CLK4 (Homo sapiens) (UniProt Q9HAZ1)
# Sequence (Q9HAZ1 whole entry, looked up): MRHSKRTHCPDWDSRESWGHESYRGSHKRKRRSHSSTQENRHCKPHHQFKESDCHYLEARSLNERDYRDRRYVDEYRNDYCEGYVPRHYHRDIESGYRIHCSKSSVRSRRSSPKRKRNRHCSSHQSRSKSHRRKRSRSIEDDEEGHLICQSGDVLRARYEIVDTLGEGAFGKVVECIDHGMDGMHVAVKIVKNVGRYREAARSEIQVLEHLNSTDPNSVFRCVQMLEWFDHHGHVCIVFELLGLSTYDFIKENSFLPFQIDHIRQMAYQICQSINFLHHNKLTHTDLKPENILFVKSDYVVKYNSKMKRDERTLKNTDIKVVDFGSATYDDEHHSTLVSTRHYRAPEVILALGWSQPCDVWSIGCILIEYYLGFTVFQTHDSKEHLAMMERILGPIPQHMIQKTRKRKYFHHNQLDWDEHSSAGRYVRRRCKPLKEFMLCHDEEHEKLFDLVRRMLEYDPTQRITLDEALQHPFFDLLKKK
# TEST DESCRIPTION: qHTS Assay for Inhibitors of CDC-like Kinase 4 (ADP-FP Assay) (AID 1795); also: nearly all actives have a fitted effect of over 60% in size
# TEST CONDITIONS: Transcreener ADP fluorescence polarization; series mostly up to 50 µM
# Experimental: NIH Molecular Libraries Probe Production Centers Network [MLPCN] NIH Chemical Genomics Center [NCGC] MLPCN Grant: 1R03MH084827-01 Assay Submitter (PI): Tom Misteli NCGC Assay Overview: Clk4 (Invitrogen cat # PV3839) was assayed using ATP and the RS repeat peptide (AnaSpec cat # 61722) as substrates using Transcreener (trade mark), a competitive fluorescence polarization (FP) assay. […] The amount of ADP produced can then be calculated using a calibration curve. […]
Records with an inconclusive call do not appear. Active and inactive are the calls of the source. Calls follow the shape of the dose curve; as a rule, active = well fitted inhibition curve with a large enough effect; inconclusive = small, poorly fitted or top-dose-only effect; inactive = flat fitted curve, though single readings scatter.
Lab note: assign the record to one of TRUE = active, FALSE = inactive

# SMILES, CLASS ASSIGNMENT
data = [
    ("CN1CCN(c2ncc3ncc(=O)n(-c4ccccc4)c3n2)CC1", "FALSE"),
]

Please let me know the test result on file for COc1ncc2nc(-c3ccc(F)cc3)c(=O)n(CCc3ccccc3)c2n1 .
FALSE

Similarly, CN(C)C(=O)c1ccc(-c2nccc(NCc3ccccc3)n2)cc1 ?
FALSE

Similarly, COc1ccc(CNc2nc(-c3cccc(NS(C)(=O)=O)c3)nc3ccccc23)c(OC)c1 ?
FALSE

Similarly, Cc1noc(C)c1-c1ccc2ncnc(N3CCOCC3)c2c1 ?
TRUE

Similarly, Cc1noc(C)c1-c1nccc(NCc2ccccc2)n1 ?
FALSE

Similarly, COc1ccc2[nH]cc(CCNc3ccnc(-c4ccc(C(=O)N(C)C)cc4)n3)c2c1 ?
FALSE

Origin of values: PubChem BioAssay (NCATS)
